# Experiment Summary: in vivo
# Run Conditions: mouse, in vivo, po
Outcome Measure: LD50 (mg/kg)
Give the quantity in mg/kg, number only.

Field: example entries. Status: answers known.
Compound | Result Unit | LD50
COc1ccc(C(=O)Nc2ccccc2CCC2CCCCN2C)cc1OC (stereo not drawn) | mg/kg | 100
COc1cccc(C(=O)Nc2ccccc2CCC2CCCCN2C)c1 (stereo not drawn) | mg/kg | 100
COc1ccc(C(=O)Nc2ccccc2CCC2CCCCN2)cc1 (stereo not drawn) [compound 139, N-demethylencainide] | mg/kg | 147

// next item, LD50 requested
Data point: COc1cc(C(=O)Nc2ccccc2CCC2CCCCN2C)ccc1O (stereo not drawn) ; LD50 = 250

* * *

# Experiment Summary: clinical
# Run Conditions: human, in vivo, po
Outcome Measure: half-life

Molecule | half-life
COc1ccc(C(=O)Nc2ccccc2CCC2CCCCN2C)cc1 (centres unmarked) [Compound No. 107, encainide] | 150 to 180 min

// next item, half-life requested
Data point: COc1cc(C(=O)Nc2ccccc2CCC2CCCCN2C)ccc1O (centres unmarked) ; half-life = 240 to 360 min

The measurements presented in this section are drawn from patent US4332803A.
